target: Hypoxia inducible factors; HIF-1-alpha, HIF-2-alpha (Homo sapiens, UniProt Q16665+Q99814); assay: Inhibition of HIF1 activation in human AGS cells assessed as inhibition of hypoxia-induced luciferase expression after 16 hrs by reporter assay; format: cell-based
quantity.kind: IC50

{"compound": "CO[C@H]1/C=C\\C=C(/C)C(=O)NC2=CC(=O)C(NCCN(C)C)=C(C[C@@H](C)C[C@H](OC)[C@H](O)[C@@H](C)/C=C(\\C)[C@@H]1OC(N)=O)C2=O [ALVESPIMYCIN]", "quantity.kind": "IC50", "result": "36 nM"}
{"compound": "C[C@H](CO)C1=C(O)C(=O)c2c(ccc3c2CCCC3(C)C)C1=O [NEOCRYPTOTANSHINONE]", "quantity.kind": "IC50", "result": "12700 nM"}
{"compound": "CC(C)C1=CC(=O)c2c(ccc3c2C=CCC3(C)C)C1=O [SIBIRIQUINONE A]", "quantity.kind": "IC50", "result": "340 nM"}
{"compound": "Cc1cccc2c3c(ccc12)C1=C(C(=O)C3=O)[C@@H](C)CO1 [DIHYDROTANSHINONE I]", "quantity.kind": "IC50", "result": "2050 nM"}
{"compound": "COC(=O)[C@@]1(C)CCCc2c1ccc1c2C(=O)C(=O)c2c(C)coc2-1 [METHYL TANSHINONATE]", "quantity.kind": "IC50", "result": "7480 nM"}
{"compound": "C[C@H]1COC2=C1C(=O)C(=O)c1c2ccc2c1CCCC2(C)C [CRYPTOTANSHINONE]", "quantity.kind": "IC50", "result": "1580 nM"}
{"compound": "CC(C)C1=CC(=O)c2c(ccc3c2CCCC3(C)C)C1=O [SIBIRIQUINONE B]", "quantity.kind": "IC50", "result": "3360 nM"}
{"compound": "Cc1coc2c1C(=O)C(=O)c1c-2ccc2c(C)cccc12 [TANSHINONE I]", "quantity.kind": "IC50", "result": "12500 nM"}
